Data provenance is patent US9682960B2.

Experimental System: Human Androgen Receptor (Homo sapiens (Human), UniProt P10275)
Sequence (P10275 whole entry): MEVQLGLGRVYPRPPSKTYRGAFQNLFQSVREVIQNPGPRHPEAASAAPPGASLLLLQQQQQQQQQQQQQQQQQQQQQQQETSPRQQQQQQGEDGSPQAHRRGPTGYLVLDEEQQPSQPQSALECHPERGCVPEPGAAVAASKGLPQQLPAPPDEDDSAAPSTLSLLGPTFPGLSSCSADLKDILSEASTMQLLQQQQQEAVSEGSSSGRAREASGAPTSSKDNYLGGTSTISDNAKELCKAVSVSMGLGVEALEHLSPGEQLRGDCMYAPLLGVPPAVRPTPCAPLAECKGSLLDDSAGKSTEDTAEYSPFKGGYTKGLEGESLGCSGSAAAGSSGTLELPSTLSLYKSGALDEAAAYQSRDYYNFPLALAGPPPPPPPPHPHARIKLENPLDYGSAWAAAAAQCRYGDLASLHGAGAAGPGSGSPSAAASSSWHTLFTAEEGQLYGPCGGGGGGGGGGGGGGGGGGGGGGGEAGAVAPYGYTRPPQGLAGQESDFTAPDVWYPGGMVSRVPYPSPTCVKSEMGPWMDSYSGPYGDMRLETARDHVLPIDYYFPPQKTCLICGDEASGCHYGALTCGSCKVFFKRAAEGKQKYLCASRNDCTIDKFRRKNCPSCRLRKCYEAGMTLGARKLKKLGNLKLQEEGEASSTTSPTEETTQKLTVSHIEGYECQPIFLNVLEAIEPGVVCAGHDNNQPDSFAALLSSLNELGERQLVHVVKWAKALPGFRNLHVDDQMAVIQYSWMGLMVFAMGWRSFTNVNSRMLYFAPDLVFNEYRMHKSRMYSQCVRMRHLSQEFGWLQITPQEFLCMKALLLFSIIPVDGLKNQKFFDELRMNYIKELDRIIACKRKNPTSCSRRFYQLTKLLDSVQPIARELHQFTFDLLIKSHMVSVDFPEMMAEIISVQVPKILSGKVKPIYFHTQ
Test Protocol: Androgen receptor assay: [3H]R1881 displacement, cytosol of HEK-293 cells transfected with hAR (hydroxylapatite assay)
Type: binding
Assay Context: relative binding affinity, R1881 = 100; […]
Endpoint Label: Human Androgen Receptor Binding RBA (%) R1881 = 100

1. Cc1c(N2C(=O)C(C)(C)N(CCCOc3ccc(-c4ccncc4)c(F)c3)C2=S)ccc(C#N)c1Cl [EM-8796] | 698
2. N#Cc1ccc(N2C(=O)N(CCCOc3ccc(-c4ccncc4)c(F)c3)C3(CCCC3)C2=O)cc1Cl [EM-9201] | 70.8
3. CC1(C)C(=O)N(c2ccc(C#N)c(Cl)c2)C(=O)N1CCCOc1ccc(-c2cc[n+]([O-])cc2)cc1F [EM-9226] | 2.4

====

Experimental System: UniProt P10275
Test Protocol: Androgen receptor assay: [3H]R1881 displacement, cytosol of HEK-293 cells transfected with hAR (hydroxylapatite assay)
Type: binding
Assay Context: relative binding affinity, R1881 = 100; […]
Measured Human Androgen Receptor Binding RBA (%) R1881 = 100 of individual entries
Endpoint Label: Human Androgen Receptor Binding RBA (%) R1881 = 100

1) CC1(C)C(=O)N(c2ccc(C#N)c(Cl)c2)C(=S)N1CCCOc1ccc(-c2cc[n+]([O-])cc2)cc1 | 106
2) Cc1c(N2C(=O)C(C)(C)N(CCCOc3ccc(-c4ccncc4Cl)cc3)C2=S)ccc(C#N)c1Cl | 89.8
3) Cc1c(N2C(=O)C(C)(C)N(CCCOc3ccc(-c4cc[n+]([O-])cc4)cc3)C2=S)ccc(C#N)c1Cl | 114
4) Cc1c(N2C(=O)N(CCCOc3ccc4ccc[n+]([O-])c4c3)C(C)(C)C2=O)ccc(C#N)c1Cl | 1.3
5) Cc1c(N2C(=O)C(C)(C)N(CCCOc3ccc(-c4ccncc4)cc3C(F)(F)F)C2=S)ccc(C#N)c1Cl | 28.1

====

Experimental System: UniProt P10275
Test Protocol: Androgen receptor assay: [3H]R1881 displacement, cytosol of HEK-293 cells transfected with hAR (hydroxylapatite assay)
Type: binding
Assay Context: versus hydroxyflutamide
Endpoint Label: times more potent than OH-flutamide on the human AR (RBA ratio)

1. CC1(C)C(=O)N(c2ccc(C#N)c(Cl)c2)C(=O)N1CCCOc1ccc(-c2ccncc2)cc1F | 105 times
2. Cc1c(N2C(=O)N(CCCOc3ccc(-c4ccncc4)cc3Cl)C(C)(C)C2=O)ccc(C#N)c1Cl | 1200 times
3. Cc1c(N2C(=O)N(CCCOc3ccc(-c4ccncc4)c(Cl)c3)C(C)(C)C2=O)ccc(C#N)c1Cl | 938 times
4. Cc1c(N2C(=O)N(CCCOc3ccc(-c4ccncc4)cc3C(F)(F)F)C(C)(C)C2=O)ccc(C#N)c1Cl | 748 times
5. Cc1c(N2C(=O)N(CCCOc3ccc(-c4ccncc4)c(F)c3)C(C)(C)C2=O)ccc(C#N)c1F | 85 times
6. Cc1c(N2C(=O)N(CCCOc3ccc(-c4ccncc4)c(F)c3)C(C)(C)C2=O)ccc(C#N)c1Cl | 595 times

====

Experimental System: Human Androgen Receptor (Homo sapiens (Human), UniProt P10275)
Test Protocol: Androgen receptor assay: [3H]R1881 displacement, cytosol of HEK-293 cells transfected with hAR (hydroxylapatite assay)
Assay type: binding
Assay Context: relative binding affinity, R1881 = 100; […]
Measured Human Androgen Receptor Binding RBA (%) R1881 = 100 of individual entries
Endpoint Label: Human Androgen Receptor Binding RBA (%) R1881 = 100

1) Cc1c(N2C(=O)N(CCCOc3ccc(-c4cc[n+]([O-])cc4)c(C(F)(F)F)c3)C(C)(C)C2=O)ccc(C#N)c1Cl [EM-9334] | 17.8
2) Cc1c(N2C(=O)NC(C)(C)C2=O)ccc(C#N)c1Cl [EM-9289] | 1.0
3) Cc1c(N2C(=O)N(CCCOc3ccc(-c4cc[n+]([O-])cc4)cc3F)C(C)(C)C2=O)ccc(C#N)c1Cl [EM-9301] | 34.6
4) Cc1c(N2C(=O)N(CCCOc3ccc(-c4ccncc4)cc3Cl)C(C)(C)C2=O)ccc(C#N)c1Cl [EM-9251] | 253
5) CC1(C)C(=O)N(c2ccc(C#N)c(C(F)(F)F)c2)C(=S)N1CCCOc1ccc2ncccc2c1 [EM-8990] | 53.6
6) Cc1c(N2C(=O)N(CCCOc3ccc(-c4ccncc4Cl)cc3)C(C)(C)C2=O)ccc(C#N)c1Cl [EM-9310] | 92.8
7) Cc1c(N2C(=O)N(CCCOc3ccc(-c4cc[n+]([O-])cc4)cc3Cl)C(C)(C)C2=O)ccc(C#N)c1Cl [EM-9252] | 96.3
8) Cc1c(N2C(=O)C(C)(C)N(CCCOc3ccc(-c4cc[n+]([O-])cc4)c(Cl)c3)C2=S)ccc(C#N)c1Cl [EM-9036] | 131
